Test system: KM12
Test: NCI tumour cell line growth inhibition, 48 h
Activity calls are given as the source filed them. Cut-off read from the data, not from the text of the source: active = GI50 up to about 1.1 µM and inactive = higher.
Classes to choose from: active, inactive

# lookup: test call for CCSC12OC3(CCCCCN3C1=O)C1C(=O)N(c3ccccc3)C(=O)C12 (centres undefined)
inactive

# lookup: test call for COC(=O)c1cc2c(o1)Sc1ccccc1NC2=O
inactive

# lookup: test call for COCCOC(=O)C1=C(O)c2ccccc2S(=O)(=O)N1C
inactive

# lookup: test call for C/C(=N\Nc1nc2ccccc2o1)c1ccc2ccccc2n1
inactive

# lookup: test call for Cn1c(=O)c2nc3c4ccccc4c(=O)n(C)c3nc2n(C)c1=O
inactive

# lookup: test call for CC(C)(C)OC(=O)CN1CCNCCN(CC(=O)OC(C)(C)C)CC1
inactive

# lookup: test call for CN(C)CCn1cnc2sc3ccccc3c21
inactive

# lookup: test call for CCOC(=O)C(NNS(=O)(=O)c1ccc(C)cc1)S(=O)(=O)C(F)(F)C(F)(F)C(F)(F)C(F)(F)F (centres undefined)
inactive

# lookup: test call for CC(C)(O)/C=C\P(C)(=O)c1ccccc1 (centres undefined)
inactive

# lookup: test call for CC(C)C1OC(N)=C(C#N)C1(C#N)C#N (centres undefined)
inactive

# lookup: test call for COc1ccc2nc3cccc([N+](=O)[O-])c3c(NCCN(C)C)c2c1
active

# lookup: test call for Clc1ccccc1NN(Cc1ccncc1)c1ccccc1Cl
inactive

# lookup: test call for CCOC(=O)c1c(N2CCCC2)nsc1Nc1ccc(F)cc1
inactive

# lookup: test call for CC(=O)CCn1[nH]c(=O)c(Cl)c(Cl)c1=O
inactive

# lookup: test call for CC(=O)OC(=C(C#N)C#N)c1nccnc1C(C)=O
inactive

# lookup: test call for CC(C)[C@H](NC(=O)[C@H](N)Cc1ccc(N(CCCl)CCCl)cc1)C(=O)O
inactive

# lookup: test call for COc1cc(C)c2c(c1C)OC(=O)c1c(C)c(Cl)c(O)c(C=O)c1O2
inactive

# lookup: test call for O=C1c2ccccc2OCC1/C=N/O (centres undefined)
inactive

# lookup: test call for COCOc1ccc(C(=O)Oc2cccc3c2OC(C)(C)O3)c(OCOC)c1
inactive

# lookup: test call for Cc1oc2c(c1C(=O)c1ccccc1)C(=O)c1ccccc1C2=O
inactive

# lookup: test call for COC(=O)c1sc(C(=O)OC)c2c1C[S+]([O-])C2
inactive

# lookup: test call for O=C(O)CN(CC(=O)O)C1CCCCC1N(CC(=O)O)CC(=O)NCCN=C=S (centres undefined)
inactive

# lookup: test call for C=CCn1c2ccccc2c2c(C)c3cnccc3c(C)c21
inactive

# lookup: test call for COc1cc2c(cc1-c1coc3cc(OCC=C(C)C)ccc3c1=O)OCO2
inactive

----------
System: U-251
Test: NCI tumour cell line growth inhibition, 48 h
The source made the active and inactive calls. Cut-off read from the data, not from the text of the source: active = GI50 up to about 1.1 µM and inactive = higher.
Classes to choose from: 1 (active), -1 (inactive)

# lookup: test call for Oc1ccc(-c2nc(-c3cccnc3)c(-c3ccc(Cl)cc3)[nH]2)cc1O
-1

# lookup: test call for CC1(C)CC(=O)C(CC(C(=O)C(=O)Nc2cc(C(F)(F)F)ccc2Cl)C(=O)c2ccco2)C(=O)C1 (centres undefined)
-1

# lookup: test call for CC(C)C1OC(N)=C(C#N)C1(C#N)C#N (centres undefined)
-1

# lookup: test call for CC(=O)[C@]1(O)Cc2c(O)c3c(c(O)c2[C@@H](OC2CC(N)C(O)C(C)O2)C1)C(=O)c1c(OCc2ccccc2)cccc1C3=O (some centres undefined)
1

# lookup: test call for C=CCCCC1(C)CCCCNC1=O (centres undefined)
-1

# lookup: test call for COC1OC(=O)C(OC)C(OC)C1OC (centres undefined)
-1

# lookup: test call for O=C1CCC[C@H]2O[C@@H](COCc3ccccc3)C[C@@H]12
-1

# lookup: test call for COC(=O)NC(=O)NC(Cc1ccccc1)NC(=O)OCc1ccccc1 (centres undefined)
-1

# lookup: test call for COc1ccc(C(=O)N2CCN(c3ccc4c(c3)OCC(=O)N4)CC2)cc1
-1

# lookup: test call for CCOC(=O)C(NC(=O)CC(C)C)(Nc1ccc(S(=O)(=O)Nc2nc(C)cc(C)n2)cc1)C(F)(F)F (centres undefined)
-1

# lookup: test call for NC(=S)N/N=C(\CC1OC(=O)c2ccccc21)c1ccc(Cl)cc1 (centres undefined)
-1

# lookup: test call for O=C1c2scc(-c3ccc(F)cc3)c2-n2cccc21
-1

# lookup: test call for COCCOC(=O)C1=C(O)c2ccccc2S(=O)(=O)N1C
-1

# lookup: test call for CCOC(=O)C(C)NC(=O)C(C)NC(=O)C(C)NC(=O)C(C)NC(=O)C(C)NC(=O)OCc1ccccc1 (centres undefined)
-1

# lookup: test call for O=c1c2nn[nH]c2nc2n1CC(c1ccccc1)S2 (centres undefined)
-1

# lookup: test call for CC1(C)OC(C(C)(C)O)C(C(C)(C)O)O1 (centres undefined)
-1

# lookup: test call for CC1C2=C(O)CC(C)(C)CC2=NC2=C1C(=O)CC(C)(C)C2 (centres undefined)
-1

# lookup: test call for NCC(=O)OCN1C(=O)C2C3C=CC(C2C1=O)C1C2C(=O)N(COC(=O)CN)C(=O)C2C31 (centres undefined)
-1

# lookup: test call for CCOc1ccc(/N=N/c2ccc(-c3ccc(/N=N/c4c(O)ccc5cc(S(=O)(=O)O)cc(S(=O)(=O)O)c45)cc3)cc2)cc1
-1

# lookup: test call for NC(=O)C[C@H](NC(=O)C1(NC(=O)[C@H](Cc2ccc(CP(=O)(O)O)cc2)NC(=O)C(=O)O)CCCCC1)C(=O)NCCCc1cccc2ccccc12
-1

# lookup: test call for CCOC(=O)C(NNS(=O)(=O)c1ccc(C)cc1)S(=O)(=O)C(F)(F)C(F)(F)C(F)(F)C(F)(F)F (centres undefined)
-1

# lookup: test call for COc1cc(Br)cc2nc(-c3cccs3)oc12
-1

# lookup: test call for CCCCCCCOc1ccc(/C=C\c2cc[n+](CCCCCCCC[n+]3ccc(/C=C\c4ccc(OCCCCCCC)cc4)cc3)cc2)cc1
-1

# lookup: test call for CC(C)(C)c1cc(C2=NN(c3ccccc3)C(c3ccccc3)C2)cc(C(C)(C)C)c1O (centres undefined)
-1

# lookup: test call for COc1cc(-c2ccc(/N=N/c3ccc4c(S(=O)(=O)O)cc(S(=O)(=O)O)c(N)c4c3O)c(OC)c2)ccc1/N=N/c1ccc2c(S(=O)(=O)O)cc(S(=O)(=O)O)c(N)c2c1O
-1

# lookup: test call for COc1ccc(N[C@H](C[S+]([O-])c2ccc(C)cc2)c2ccc(F)cc2)cc1 (some centres undefined)
-1

# lookup: test call for CC(Oc1ccc(Oc2cnc3ccc(Cl)cc3n2)cc1)C(=O)O (centres undefined)
-1

# lookup: test call for CC(=O)c1cc(C)n2c1CS[C@@H]2c1ccccc1
-1

# lookup: test call for C/C(=C1/N=C(c2ccccc2)OC1=O)c1ccc(C)cc1
-1

# lookup: test call for Nc1nccc(-c2c[nH]c3cc(Br)ccc23)n1
-1

# lookup: test call for CC(C)(C)C1(c2ccc(C3(c4ccccc4)Oc4ccccc4S3)[nH]2)Oc2ccccc2S1 (centres undefined)
-1

# lookup: test call for O=c1oc2ncccc2n1Cc1ccc([N+](=O)[O-])cc1
-1

# lookup: test call for COC(=O)c1c(O)ccc2c1c1c(n2Cc2ccc(Cl)cc2Cl)C(=O)c2ccccc2C1
-1

# lookup: test call for COC1=N[C@H](C(C)C)C(OC)=N[C@H]1Cc1ccc(C[C@@H]2N=C(OC)[C@@H](C(C)C)N=C2OC)s1
-1

# lookup: test call for CCCc1nc(NC#N)nc(C(=O)NC23CC4CC(CC(C4)C2)C3)c1C
-1

# lookup: test call for COc1cc(/C=C/c2ccnc3ccccc23)cc(OC)c1OC
-1

# lookup: test call for NC(=S)N/N=C(/CC(=O)c1ccccc1)C(=O)Nc1ccc(Cl)c(Cl)c1
-1

# lookup: test call for Cc1cccc(C)c1NC(=O)CCCC(=O)CC(=O)/C=C/c1ccccc1
-1

# lookup: test call for CCOC(=O)c1c(C)n(-c2ccc(Cl)cc2)c2c1cc(O)c1[nH]c3c(c12)CCCC3
-1
